B1: Mineralocorticoid receptor, residues 600 to 675; numbered along this chain, P08235 (parent)
chain: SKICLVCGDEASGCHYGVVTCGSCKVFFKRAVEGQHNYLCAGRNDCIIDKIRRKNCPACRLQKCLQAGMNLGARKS

Variants of: B1
assay.name: abundance fitness (aPCA) (normalised: wild type 0, dead -1); higher = more abundant; growth selection in yeast, the domain comes from the species named
experimental.parameters: Homo sapiens
Reported abundance fitness values for the following variants.

mutation.notation: C40V
abundance fitness: -1.23

mutation.notation: A11T
abundance fitness: -0.063

mutation.notation: R52H
abundance fitness: -0.055

mutation.notation: S1G
abundance fitness: -0.087

mutation.notation: P57C
abundance fitness: -0.042

mutation.notation: F28D
abundance fitness: -0.782

mutation.notation: C46H
abundance fitness: -0.011

mutation.notation: L65K
abundance fitness: -0.107

mutation.notation: I48S
abundance fitness: -0.122

mutation.notation: V32W
abundance fitness: -0.24

mutation.notation: N70H
abundance fitness: -0.031

mutation.notation: G17E
abundance fitness: -0.007

mutation.notation: K2T
abundance fitness: -0.049

mutation.notation: R30Y
abundance fitness: -0.121

mutation.notation: C40Y
abundance fitness: -0.737

mutation.notation: G13T
abundance fitness: 0.016

mutation.notation: Q62R
abundance fitness: -0.045

mutation.notation: I48T
abundance fitness: -0.026

mutation.notation: H15W
abundance fitness: 0.029

mutation.notation: R74N
abundance fitness: -0.011

mutation.notation: C40N
abundance fitness: -0.477

mutation.notation: I48Q
abundance fitness: -0.013

mutation.notation: Q66L
abundance fitness: -0.112

mutation.notation: V6P
abundance fitness: -0.704

mutation.notation: F28V
abundance fitness: -0.322

mutation.notation: G42T
abundance fitness: -0.099

mutation.notation: Y38C
abundance fitness: -0.153

mutation.notation: L39F
abundance fitness: -0.027

mutation.notation: I51A
abundance fitness: -0.018

mutation.notation: T20R
abundance fitness: -0.75

mutation.notation: G42M
abundance fitness: 0.045

mutation.notation: H36F
abundance fitness: -0.023

mutation.notation: P57T
abundance fitness: -0.082

mutation.notation: S1A
abundance fitness: -0.136

mutation.notation: I3K
abundance fitness: -0.196

mutation.notation: I48M
abundance fitness: 0.021

mutation.notation: G34Q
abundance fitness: -0.043

mutation.notation: K54L
abundance fitness: -0.106

mutation.notation: F27M
abundance fitness: -0.861

mutation.notation: D9R
abundance fitness: -0.183

mutation.notation: C64K
abundance fitness: -0.885

mutation.notation: N70G
abundance fitness: -0.082

mutation.notation: G22C
abundance fitness: -0.178

mutation.notation: G72C
abundance fitness: 0

mutation.notation: S76Q
abundance fitness: -0.096

mutation.notation: L5T
abundance fitness: -0.037

mutation.notation: A41G
abundance fitness: 0.028

mutation.notation: C59N
abundance fitness: -0.711

mutation.notation: S23E
abundance fitness: 0.003

mutation.notation: Y16P
abundance fitness: -0.125

mutation.notation: K29P
abundance fitness: -0.076

mutation.notation: C14D
abundance fitness: -0.011

mutation.notation: Q66H
abundance fitness: -0.045

mutation.notation: I48N
abundance fitness: -0.015

mutation.notation: G13V
abundance fitness: -0.092

mutation.notation: K2H
abundance fitness: -0.109

mutation.notation: Y16G
abundance fitness: -0.061

mutation.notation: R74K
abundance fitness: 0.02

mutation.notation: S12L
abundance fitness: 0.068

mutation.notation: V32G
abundance fitness: -0.228

mutation.notation: K29C
abundance fitness: -0.142

mutation.notation: G42C
abundance fitness: -0.088

mutation.notation: V19M
abundance fitness: 0.115

mutation.notation: N37Y
abundance fitness: -0.085

mutation.notation: Q62S
abundance fitness: -0.049

mutation.notation: V19R
abundance fitness: -0.019

mutation.notation: D49F
abundance fitness: -0.251

mutation.notation: G68E
abundance fitness: -0.146

mutation.notation: C24A
abundance fitness: -0.983

mutation.notation: K63T
abundance fitness: -0.024

mutation.notation: Y38R
abundance fitness: -0.088

mutation.notation: P57S
abundance fitness: -0.051

mutation.notation: L61R
abundance fitness: -0.205

mutation.notation: S76I
abundance fitness: -0.198

mutation.notation: C7Y
abundance fitness: -0.805

mutation.notation: G34M
abundance fitness: -0.098

mutation.notation: Y38P
abundance fitness: -0.038

mutation.notation: N37F
abundance fitness: -0.264

mutation.notation: A11R
abundance fitness: -0.089

mutation.notation: C24V
abundance fitness: -1.01

mutation.notation: C14W
abundance fitness: -0.049

mutation.notation: C46S
abundance fitness: -0.946

mutation.notation: R74G
abundance fitness: -0.022

mutation.notation: L65H
abundance fitness: 0.032

mutation.notation: G22P
abundance fitness: -0.054

mutation.notation: T20P
abundance fitness: -0.691

mutation.notation: A41L
abundance fitness: -0.103

mutation.notation: R52I
abundance fitness: 0.049

mutation.notation: M69F
abundance fitness: -0.239

mutation.notation: L5V
abundance fitness: -0.209

mutation.notation: C21P
abundance fitness: -1.05
